src = PubChem BioAssay (EPA / NIEHS)

# protocol: BSK_CASM3C_SRB: Viability Assessment in the BioMAP Diversity Plus: CASM3C Assay (AID 2283050);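 note: total protein by SRB staining as cytotoxicity measure in parallel cultures; cells exposed to compound for 24 h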
# condition.parameters: primary human coronary artery smooth muscle cells
The source made the active and inactive calls. Rule for the calls: active = hit-call score of the fitted dose curve at least 0.9, where 1 is the maximum; inactive = score below 0.9.
Allowed answers: active, inactive

OCc1ccco1 :: inactive
CC(=O)[O][Hg][c]1ccccc1 :: active
CCCCCCCCC(=O)NCc1ccc(O)c(OC)c1 :: inactive
CC(=O)OC(c1ccccc1)C(Cl)(Cl)Cl (centres undefined) :: inactive
Oc1ccc(-c2ccccc2)cc1 :: active

Query: Outcome logged for O=S(=O)(c1ccc(Cl)cc1)c1ccc(Cl)cc1 in this assay:
Reply: inactive

Query: Outcome logged for CN(C)N=O in this assay:
Reply: inactive

Query: Outcome logged for ClCC(Cl)CCl in this assay:
Reply: inactive

Query: Outcome logged for CCSC(C)CC1CC(=O)C(C(CC)=NOC/C=C/Cl)=C(O)C1 (centres undefined) in this assay:
Reply: inactive

Query: Outcome logged for O=C(O)C(F)(F)C(F)(F)C(F)(F)C(F)(F)C(F)(F)C(F)(F)F in this assay:
Reply: inactive

Query: Outcome logged for CC1(C)Cc2cccc(O)c2O1 in this assay:
Reply: inactive

###

# measurement.target: Nuclear respiratory factor 1 (Homo sapiens) (UniProt Q16656)
# Sequence (Q16656 whole entry, looked up): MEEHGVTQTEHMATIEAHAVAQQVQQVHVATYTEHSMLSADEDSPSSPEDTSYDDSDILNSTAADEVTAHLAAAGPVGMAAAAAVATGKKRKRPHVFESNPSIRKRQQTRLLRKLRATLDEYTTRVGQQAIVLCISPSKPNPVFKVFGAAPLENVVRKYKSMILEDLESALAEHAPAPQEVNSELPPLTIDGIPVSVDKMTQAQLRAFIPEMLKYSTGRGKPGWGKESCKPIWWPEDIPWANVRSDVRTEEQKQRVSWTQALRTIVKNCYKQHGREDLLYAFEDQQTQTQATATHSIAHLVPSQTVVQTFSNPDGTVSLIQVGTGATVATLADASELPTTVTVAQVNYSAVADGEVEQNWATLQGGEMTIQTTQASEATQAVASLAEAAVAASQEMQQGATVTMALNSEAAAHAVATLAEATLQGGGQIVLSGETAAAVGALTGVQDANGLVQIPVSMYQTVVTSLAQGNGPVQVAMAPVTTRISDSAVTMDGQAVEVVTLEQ
# protocol: ATG_NRF1_CIS: Attagene CIS-FACTORIAL HepG2 Assay for human Nuclear Respiratory Factor 1 (NRF1) Orphan Gene (AID 2282987)
# condition.parameters: HepG2 NRF1 cis-element reporter, Attagene multiplex; actives raise or lower the signal
The source made the active and inactive calls. The calls were made as follows: active = hit-call score of the fitted dose curve at least 0.9, where 1 is the maximum; inactive = score below 0.9.
Allowed answers: active, inactive

CN(C)N=O :: inactive

Query: Outcome logged for CCN1CCC2(CC1)COc1cc3c(cc12)N(C(=O)c1ccc(-c2ccc(-c4nnc(C)o4)cc2C)cc1)CC3 in this assay:
Reply: inactive

Query: Outcome logged for CCCCOCCOC(C)=O in this assay:
Reply: inactive

Query: Outcome logged for C[C@H]1CCCC(=O)CCC/C=C/c2cc(O)cc(O)c2C(=O)O1 in this assay:
Reply: active

Query: Outcome logged for COC[C@H](C)N(C(=O)CCl)c1c(C)csc1C in this assay:
Reply: inactive

Query: Outcome logged for C(=NC1CCCCC1)=NC1CCCCC1 in this assay:
Reply: inactive

Query: Outcome logged for CC1(C)CCC(Cc2ccc(Cl)cc2)C1(O)Cn1cncn1 (configuration not stated) in this assay:
Reply: inactive

###

# protocol: ATG_AP_2_CIS: Attagene CIS-FACTORIAL HepG2 Assay for human Activator Protein 2 (AP-2) (AID 2282932)
# condition.parameters: HepG2 AP-2 cis-reporter, Attagene transcription factor profiling; actives raise or lower the signal
The source made the active and inactive calls. Rule for the calls: active = hit-call score of the fitted dose curve at least 0.9, where 1 is the maximum; inactive = score below 0.9.
Allowed answers: y (active), n (inactive)

Record excerpt, results attached:
O=S(=O)(c1ccc(Cl)cc1)c1ccc(Cl)cc1 :: n
C1CCC(NC2CCCCC2)CC1 :: n
N#CCc1ccc(Cl)cc1 :: n
CCC[CH2][Sn]([Cl])([Cl])[Cl] :: n
Cc1ccccc1N :: n

Query: Outcome logged for Cc1ccccc1C(=O)Nc1cccc(OC(C)C)c1 in this assay:
Reply: n

Query: Outcome logged for CCOP(=S)(OCC)Oc1ccc(S(C)=O)cc1 (configuration not stated) in this assay:
Reply: n

Query: Outcome logged for CCC(=O)c1ccccc1 in this assay:
Reply: n

Query: Outcome logged for COc1ccc(C=O)cc1 in this assay:
Reply: n

Query: Outcome logged for CCOC(=O)CP(=O)(OCC)OCC in this assay:
Reply: n

###

# Read-out: Actin alpha 1 (ACTA1), ACTA1 (gene 58)
# protocol: BSK_MyoF_ACTA1: BioMAP Diversity Plus: MyoF Assay for Actin alpha 1 (ACTA1) Biomarker Activity (AID 2284244)
# condition.parameters: primary human lung fibroblasts
Activity calls are given as the source filed them. How the source made its calls: active means hit-call score of the fitted dose curve at least 0.9, where 1 is the maximum; inactive means score below 0.9.
Allowed answers: yes (1) for active, no (0) for inactive

Record excerpt, results attached:
CC1(C)Cc2cccc(O)c2O1 :: no (0)
NC(=S)Nc1ccccc1 :: no (0)
COC[C@H](C)N(C(=O)CCl)c1c(C)csc1C :: no (0)

Read the next record carefully.
Query: Outcome logged for COP(=S)(OC)Oc1ccc(Sc2ccc(OP(=S)(OC)OC)cc2)cc1 in this assay:
Reply: yes (1)

###

# protocol: ATG_DR4_LXR_CIS: Attagene CIS-FACTORIAL HepG2 Assay for human Liver X Receptor (LXR), DR4 submotif (AID 2282929)
# condition.parameters: HepG2 Attagene DR4 cis-reporter, mRNA transcription; actives raise or lower the signal
The source made the active and inactive calls. The calls were made as follows: active = hit-call score of the fitted dose curve at least 0.9, where 1 is the maximum; inactive = score below 0.9.
Allowed answers: true (1) = active, false (0) = inactive

Record excerpt, results attached:
C[C@]12CC[C@H](O)CC1=CC[C@@H]1[C@@H]2CC[C@]2(C)C(=O)CC[C@@H]12 :: false (0)
CCOP(=S)(OCC)SCSP(=S)(OCC)OCC :: false (0)
O=CC=O :: false (0)
Cc1ccccc1N :: false (0)
NC(=O)O :: false (0)
CC(C)(C)c1cc(O)ccc1O :: true (1)
Cc1ccccc1C(=O)Nc1cccc(OC(C)C)c1 :: true (1)
CCNc1nc(NC(C)(C)C)nc(SC)n1 :: false (0)

Query: Outcome logged for CC1CN1P(=O)(N1CC1C)N1CC1C (configuration not stated) in this assay:
Reply: false (0)

Query: Outcome logged for CC(C)c1ccc(CO)cc1 in this assay:
Reply: false (0)

Query: Outcome logged for CC(=O)C=C(C)C in this assay:
Reply: false (0)

###

# Read-out: MYC, MYC (gene 4609)
# protocol: LTEA_HepaRG_MYC: Life Technologies and Expression Analysis (LTEA) Assay for MYC using HepaRG (AID 2283518)
# condition.parameters: mRNA level, 48 h; actives raise or lower the signal
The source made the active and inactive calls. How the source made its calls: active means hit-call score of the fitted dose curve at least 0.9, where 1 is the maximum; inactive means score below 0.9.
measure: AC50

Record excerpt, results attached:
CCOP(=S)(OCC)Oc1nc(Cl)c(Cl)cc1Cl :: inactive
C=C(C)C(=O)[O][Sn]([CH2]CCC)([CH2]CCC)[CH2]CCC :: 2.77 µM (active)
CC(=O)[O][Hg][c]1ccccc1 :: 24.2 µM (active)
O=C(Nc1ccc2[nH]ccc2c1)c1cc2cc(F)ccc2n1Cc1cccc(F)c1 :: 15.7 µM (active)
ClC1(Cl)C2(Cl)C3(Cl)C4(Cl)C(Cl)(Cl)C5(Cl)C3(Cl)C1(Cl)C5(Cl)C24Cl (configuration not stated) :: inactive

Respectfully, I request AC50 for each entry included below.
1. CN(C)N=O
2. ClCC(Cl)CCl

Reply:
1: inactive; 2: inactive

###

# measurement.target: Aryl hydrocarbon receptor (Homo sapiens) (UniProt P35869)
# Sequence (P35869 whole entry, looked up): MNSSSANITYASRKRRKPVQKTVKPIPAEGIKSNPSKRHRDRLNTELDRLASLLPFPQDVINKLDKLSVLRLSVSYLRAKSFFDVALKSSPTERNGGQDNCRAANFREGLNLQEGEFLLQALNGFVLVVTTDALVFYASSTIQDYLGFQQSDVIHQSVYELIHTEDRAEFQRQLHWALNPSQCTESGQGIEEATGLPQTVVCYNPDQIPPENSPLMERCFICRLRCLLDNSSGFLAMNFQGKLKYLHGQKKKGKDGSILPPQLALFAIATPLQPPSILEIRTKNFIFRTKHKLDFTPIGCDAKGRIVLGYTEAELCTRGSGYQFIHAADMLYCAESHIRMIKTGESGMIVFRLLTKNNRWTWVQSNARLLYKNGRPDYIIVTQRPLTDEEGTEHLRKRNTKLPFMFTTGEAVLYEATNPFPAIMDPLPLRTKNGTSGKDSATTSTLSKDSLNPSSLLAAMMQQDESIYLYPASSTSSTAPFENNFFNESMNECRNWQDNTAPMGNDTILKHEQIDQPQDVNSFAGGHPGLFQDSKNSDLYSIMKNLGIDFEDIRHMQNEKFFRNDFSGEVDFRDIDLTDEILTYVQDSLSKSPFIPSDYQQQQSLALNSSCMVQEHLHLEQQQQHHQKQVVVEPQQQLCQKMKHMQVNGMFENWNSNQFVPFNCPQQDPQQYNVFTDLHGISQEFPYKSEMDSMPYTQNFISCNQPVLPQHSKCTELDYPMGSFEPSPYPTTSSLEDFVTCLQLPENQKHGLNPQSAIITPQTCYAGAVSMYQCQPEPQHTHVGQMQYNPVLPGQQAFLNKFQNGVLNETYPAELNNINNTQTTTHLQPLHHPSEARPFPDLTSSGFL
# protocol: ATG_Ahr_CIS: Attagene CIS-FACTORIAL HepG2 Assay for human Aryl Hydrocarbon Receptor (Ahr) (AID 2282930)
# condition.parameters: HepG2 AhR cis-factorial reporter transcription; actives raise or lower the signal
# Description: ATG_CIS is a cell-based, multiplexed-readout assay that uses HepG2, a human liver cell line, with measurements taken at 24 hours after chemical dosing in a 24-well plate.ATG_Ahr_CIS is one of 52 assay component(s) measured or calculated from the ATG_CIS assay. […] This assay endpoint, ATG_Ahr_CIS, was analyzed with bidirectional fitting relative to DMSO as the negative control and baseline of activity. […]
Calls of active or inactive are those of the source. The calls were made as follows: active = hit-call score of the fitted dose curve at least 0.9, where 1 is the maximum; inactive = score below 0.9.
Allowed answers: label 1 = active, label 0 = inactive

Record excerpt, results attached:
Clc1ccc(COC(Cn2ccnc2)c2ccc(Cl)cc2Cl)cc1 (stereo unspecified) :: label 0
CC(=O)C(Cl)C(=O)N(C)C (stereo unspecified) :: label 0
CC(=O)[O][Hg][c]1ccccc1 :: label 0
Fc1ccc(C2(Cn3cncn3)OC2c2ccccc2Cl)cc1 (stereo unspecified) :: label 1
Cc1ccccc1C(=O)Nc1cccc(OC(C)C)c1 :: label 0
Oc1c(I)cc(I)cc1I :: label 1
NNC(=S)NN :: label 0
c1ccc(N=NNc2ccccc2)cc1 :: label 1

Query: Outcome logged for ClC(Cl)=C(Cl)C(Cl)=C(Cl)Cl in this assay:
Reply: label 1

###

# protocol: ATG_GRE_CIS: Attagene CIS-FACTORIAL HepG2 Assay for human Glucocorticoid Response Elements (GRE) (AID 2282947)
# condition.parameters: HepG2 GRE cis-reporter, Attagene multiplex mRNA; actives raise or lower the signal
Active and inactive are the calls of the source. The calls were made as follows: active = hit-call score of the fitted dose curve at least 0.9, where 1 is the maximum; inactive = score below 0.9.
Allowed answers: active, inactive

Record excerpt, results attached:
CN(CCCC(=O)c1cccnc1)N=O :: inactive
COC(=O)c1sccc1S(=O)(=O)NC(=O)Nc1nc(C)nc(OC)n1 :: inactive
O=C(CCl)CCl :: active

Read the next record carefully.
Query: Outcome logged for CCc1ccccc1N in this assay:
Reply: inactive

###

# protocol: BSK_BE3C_SRB: Viability Assessment in the BioMAP Diversity Plus: BE3C Assay (AID 2283028);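 note: fitted both ways so AC50 may mark signal gain or loss versus DMSO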
# condition.parameters: primary human bronchial epithelial cells
Active and inactive are the calls of the source. Rule for the calls: active = hit-call score of the fitted dose curve at least 0.9, where 1 is the maximum; inactive = score below 0.9.
Allowed answers: active, inactive

Query: Outcome logged for CCN1CCC2(CC1)COc1cc3c(cc12)N(C(=O)c1ccc(-c2ccc(-c4nnc(C)o4)cc2C)cc1)CC3 in this assay:
Reply: active
